src = PubChem BioAssay (Tox21)

- Measurement Notes: qHTS assay for identifying genotoxic compounds that show differential cytotoxicity against isogenic chicken DT40 cell lines with known DNA damage response pathways - Rev3 mutant cell line (AID 743014); further: nearly all actives have a fitted effect of over 55% in size
- Test Parameters: chicken DT40 Rev3-/- viability, CellTiter-Glo, 40 h; series mostly up to 68.4 µM
Inconclusive results are not listed. Activity calls are given as the source filed them. The call rests on the fitted dose curve; in most records, active means well fitted cell-killing curve with a large enough effect in the repeat runs; inconclusive means weak or mixed curves, or effect the other way; inactive means no such curve, though single readings can be large or run the other way.
Give one outcome, nothing more. List: TRUE for active, FALSE for inactive

[[record]]
molecule = "CO/N=C(\\C(=O)N[C@@H]1C(=O)N2C(C(=O)O)=C(CSc3nnnn3C)CS[C@H]12)c1csc(N)n1"
cat = "FALSE"

[[record]]
molecule = "CCCOc1ccc2nc(NC(=O)OC)sc2c1"
cat = "TRUE"


# input Test call for this molecule, please: "C[C@H]1C[C@H]2[C@@H]3CCC4=CC(=O)C=C[C@]4(C)[C@@]3(F)[C@@H](O)C[C@]2(C)[C@@]1(O)C(=O)CCl"
# output TRUE

# input Test call for this molecule, please: CC#CCC(C)[C@H](O)/C=C/[C@@H]1[C@H]2c3cccc(CCCC(=O)O)c3O[C@H]2C[C@H]1O (some centres not stated)
# output FALSE

# input Test call for this molecule, please: "CCCCCCCCCCCCCC[n+]1ccc(C)cc1"
# output TRUE

# input Test call for this molecule, please: "CCN(CC)CCOc1ccc2nc(N(C)C)sc2c1"
# output TRUE

# input Test call for this molecule, please: "CCCC(=O)N1CCCN(c2nc(N)c3cc(OC)c(OC)cc3n2)CC1"
# output FALSE

# input Test call for this molecule, please: "CCOC(=O)[C@H](CS)NCCN[C@@H](CS)C(=O)OCC"
# output FALSE

# input Test call for this molecule, please: "O=S(O)CNc1ccc(S(=O)(=O)c2ccc(NCS(=O)O)cc2)cc1"
# output FALSE

# input Test call for this molecule, please: "CN(C)c1ccc(C(=C2C=CC(=[N+](C)C)C=C2)c2c(O)c(S(=O)(=O)[O-])cc3cc(S(=O)(=O)O)ccc23)cc1"
# output TRUE
